# assay_remarks: Viability assay (MTT cytotoxicity)
# Format: cell-based
# measurement_context: human, HeLa-P4 cells
result_type: IC50 at 2 days

[
  {
    "compound": "O=C(O)c1ccc2ccc(/C=C/c3cc(O)c(O)c(Cl)c3)nc2c1O [SQE41]",
    "value_measured": "22.5 µM"
  }
]

* * *

# assay_remarks: Viability assay (MTT cytotoxicity)
# Type: cell-based
# measurement_context: human, hela-p4 cells, comparative example, 2 days, read-out: Cytoto-IC50 IC50

[
  {
    "compound": "COc1cc(/C=C/c2ccc3ccc(C(=O)O)c(O)c3n2)cc(O)c1O [FZ41, reference compound]",
    "CC50 at 48 h": "> 100 µM"
  }
]

* * *

# target: HBX2 HIV integrase (Human immunodeficiency virus type 1 group M subtype B)
# Construct: The pET-15b-IN plasmid contains the cDNA encoding the HBX2 HIV integrase; His tag (N, cleaved yes); made in house; host or cells: Escherichia coli BL21 (DE3)
# assay_remarks: 3' LTR Processing Assay
# Format: biochemical
# measurement_context: U5A-U5B substrate DNA 12.5 nM, IN 200 nM, 10mM MgCl2, up to 2 h at 37°C; read-out: Processing IC50
pIC50: −log10 of the molar value.
Measured pIC50 by item

[
  {
    "substance_smiles": "COc1cc(/C=C/c2ccc3ccc(Br)c(O)c3n2)cc(O)c1O",
    "pIC50": 6.02
  },
  {
    "substance_smiles": "O=C(O)c1ccc2ccc(/C=C/c3cc(O)c(O)c([N+](=O)[O-])c3)nc2c1O",
    "pIC50": 6.82
  }
]

* * *

# target: HBX2 HIV integrase (Human immunodeficiency virus type 1 group M subtype B, UniProt P04585)
# Construct: The pET-15b-IN plasmid contains the cDNA encoding the HBX2 HIV integrase; His tag (N, cleaved yes); made in house; host or cells: Escherichia coli BL21 (DE3)
# assay_remarks: 3' LTR Processing Assay
# Assay type: biochemical
pIC50: −log10 of the molar value.
result_type: pIC50

[
  {
    "compound": "O=C(O)c1ccc2ccc(/C=C/c3cc(O)c(O)c(Cl)c3)nc2c1O [SQE41]",
    "value_measured": 6.55
  }
]

Taken from patent EP2147913A1.
